Recorded values, source patent US11696917B2.

Below, each entry is listed with its recorded pIC50.
molecular target: purified recombinant human HER2 protein (Homo sapiens (Human), UniProt P04626); assay: Measurement of inhibitory effect on HER2-phosphorylating activity (in vitro); assay type: biochemical; conditions: ATP 6 μM, 25° C., 40 minutes
Sequence (P04626 23-1255): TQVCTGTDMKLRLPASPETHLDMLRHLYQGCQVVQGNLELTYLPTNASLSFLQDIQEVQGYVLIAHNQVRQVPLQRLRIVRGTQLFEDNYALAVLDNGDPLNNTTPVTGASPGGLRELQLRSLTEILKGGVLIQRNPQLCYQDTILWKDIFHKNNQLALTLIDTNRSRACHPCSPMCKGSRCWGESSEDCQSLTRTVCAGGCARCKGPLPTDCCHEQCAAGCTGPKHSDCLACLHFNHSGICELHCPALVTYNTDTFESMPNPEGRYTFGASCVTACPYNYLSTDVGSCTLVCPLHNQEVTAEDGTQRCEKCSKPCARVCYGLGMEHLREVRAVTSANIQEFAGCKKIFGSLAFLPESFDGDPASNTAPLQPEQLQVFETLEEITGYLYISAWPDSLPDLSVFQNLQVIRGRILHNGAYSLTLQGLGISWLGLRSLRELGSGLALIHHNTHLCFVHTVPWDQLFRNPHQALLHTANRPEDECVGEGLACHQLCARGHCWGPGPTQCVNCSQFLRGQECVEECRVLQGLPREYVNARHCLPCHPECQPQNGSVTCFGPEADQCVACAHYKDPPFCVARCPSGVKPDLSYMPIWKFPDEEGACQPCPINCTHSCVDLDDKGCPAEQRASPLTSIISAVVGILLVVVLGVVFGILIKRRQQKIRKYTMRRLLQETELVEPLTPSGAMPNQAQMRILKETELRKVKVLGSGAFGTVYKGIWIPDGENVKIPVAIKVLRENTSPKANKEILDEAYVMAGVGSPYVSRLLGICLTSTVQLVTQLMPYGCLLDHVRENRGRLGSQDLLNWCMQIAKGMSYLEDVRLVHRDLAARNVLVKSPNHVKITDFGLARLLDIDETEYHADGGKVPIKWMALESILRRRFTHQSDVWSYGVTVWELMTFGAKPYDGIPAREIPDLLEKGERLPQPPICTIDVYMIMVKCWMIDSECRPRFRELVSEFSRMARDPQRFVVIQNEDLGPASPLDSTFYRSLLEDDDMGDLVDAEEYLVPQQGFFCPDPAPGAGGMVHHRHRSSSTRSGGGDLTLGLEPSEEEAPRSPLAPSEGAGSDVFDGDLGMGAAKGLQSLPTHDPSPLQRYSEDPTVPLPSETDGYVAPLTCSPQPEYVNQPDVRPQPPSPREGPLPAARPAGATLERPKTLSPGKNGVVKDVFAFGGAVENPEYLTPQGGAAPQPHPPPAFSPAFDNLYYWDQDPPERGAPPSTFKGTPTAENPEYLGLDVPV
Worth noting: pIC50 values are minus log10 of concentrations stated in mol/L.

Please report the recorded pIC50 for C=CC(=O)N1CCC[C@@H](n2nc(C(=O)Nc3ccc(OC(=O)N(C)C)c(Cl)c3)c3c(N)ncnc32)C1 .
8.19

Please report the recorded pIC50 for C=CC(=O)N1CCC[C@@H](n2nc(C(=O)Nc3ccc(CC(=O)N(C)C)cc3-c3ccoc3)c3c(N)ncnc32)C1 .
7.89

Please report the recorded pIC50 for C=CC(=O)N1CCC[C@@H](n2nc(C(=O)Nc3ccc(CC(=O)N(C)C)c4c3OCO4)c3c(N)ncnc32)C1 .
7.85

Continue with the next compound.
Please report the recorded pIC50 for C=CC(=O)N1CCC[C@@H](n2nc(C(=O)Nc3ccc(OC(=O)N(C)C)c(F)c3F)c3c(N)ncnc32)C1 .
7.80
